Values were extracted from the supplement of paper PMC7125110.

B1: glmS ribozyme (parent)
chain: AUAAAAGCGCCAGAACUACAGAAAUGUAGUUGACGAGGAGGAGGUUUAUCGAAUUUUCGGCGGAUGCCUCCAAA

variants of: B1; experiment: self-cleavage kobs at 2500 uM GlcN6P; higher = faster cleavage; RNA array; details: with glucosamine-6-phosphate
This sample holds only a part of the variants without activity.
Label Yes when self-cleavage kobs at 2500 uM GlcN6P is at or above 0.0002 s⁻¹; otherwise label No.

Would you please look over these solved cases?
[[record]]
mutation_notation = "A15U U30C U31A"
group = "Yes"

[[record]]
mutation_notation = "C34U G51U A64C"
group = "No"


[in] Please check the record G32U G41A C58U and state if its self-cleavage kobs at 2500 uM GlcN6P is at or above 0.0002 s⁻¹.
[out] No

[in] Identify whether the reported self-cleavage kobs at 2500 uM GlcN6P of the following variant is 0.0002 s⁻¹ or greater: A6G G7U U31C A36C
[out] No

[in] Entry C16U C71G : is its self-cleavage kobs at 2500 uM GlcN6P no less than 0.0002 s⁻¹?
[out] Yes

[in] For this variant, is measured self-cleavage kobs at 2500 uM GlcN6P 0.0002 s⁻¹ or higher? U46G U54A
[out] Yes

[in] Item G29U G44U G59U C67A with self-cleavage kobs at 2500 uM GlcN6P of 0.0002 s⁻¹ or above?
[out] No

[in] Decide: is the reported value of self-cleavage kobs at 2500 uM GlcN6P for G7U A53C C58A U69G C70U equal to or greater than 0.0002 s⁻¹?
[out] Yes
